B1: CDS2 (parent)
chain: LIVVTQSHLVIHNLFEGMIWFIVP

Variants of: B1
assay-text: protein stability index of a GFP-peptide fusion (GPS, HEK-293T) (PSI 1-6); higher = more stable;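 note: lentivirally expressed fusions sorted by FACS into six bins by GFP to DsRed ratio, PSI derived from sequencing read proportions per bin multiplied by bin number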
measurement-parameters: c terminus: a fixed tail appended
List of protein stability index values.
endpoint-label: protein stability index

mutation_name=T5P assay_result=3.86
mutation_name=F21E assay_result=1.96
mutation_name=V4Q assay_result=2.74
mutation_name=L9T assay_result=3.82
mutation_name=S7W assay_result=3.44
mutation_name=I11W assay_result=1.04
mutation_name=H8G assay_result=4.59
mutation_name=F21V assay_result=2.39
mutation_name=P24N assay_result=2.81
mutation_name=V3T assay_result=2.85
mutation_name=W20M assay_result=2.28
mutation_name=I22P assay_result=2.56
mutation_name=I22Q assay_result=1.69
mutation_name=H12D assay_result=3.58
mutation_name=I19G assay_result=3.67
mutation_name=F21S assay_result=2.8
mutation_name=I11N assay_result=4.03
mutation_name=F15R assay_result=2.03
mutation_name=E16Q assay_result=2.01
mutation_name=H12C assay_result=3.91
mutation_name=I2M assay_result=2.66
mutation_name=I22A assay_result=2.07
